Just for reference, PubChem BioAssay (NCI) is where these values come from.

TGI overview
Tested on: HT29 colon
Assay: NCI tumour cell line growth inhibition, 48 h

compound: CCn1c(-c2cc3ccccc3cc2OC(=O)c2ccccc2)n[nH]c1=S
target_of_assay: HT29 colon
TGI: > 50 µM
--
compound: O=C1C(=O)C(CCCO)(CCCO)CCCCCCCCC1(CCCO)CCCO
target_of_assay: HT29 colon
TGI: > 100 µM
--
compound: Cc1ccc(C)c(NC(=O)CCc2n[nH]c(=S)o2)c1
target_of_assay: HT29 colon
TGI: > 100 µM
--
compound: O=c1[nH]nc(Cc2ccc([N+](=O)[O-])cc2)[nH]1
target_of_assay: HT29 colon
TGI: > 100 µM
--
compound: Cc1ccc(NC(=O)CCC(=O)C(C#N)c2ccc(Cl)cc2)cc1C (stereo not drawn)
target_of_assay: HT29 colon
TGI: > 100 µM
--
compound: S=C1OC2C3C4CC5C3C(O1)C1C5C4C21 (stereo not drawn)
target_of_assay: HT29 colon
TGI: > 100 µM
--
compound: CCCNC(=O)Cn1c(-c2ccccc2)cc2ccccc21
target_of_assay: HT29 colon
TGI: > 100 µM
--
compound: CCCCC[C@@H]1OC(=O)[C@@]2(CC3c4ccccc4C2c2ccccc23)[C@H]1C(=O)OC
target_of_assay: HT29 colon
TGI: > 100 µM
--
compound: Cc1nc2ccccc2n1CCc1nc2ccccc2[nH]1
target_of_assay: HT29 colon
TGI: > 100 µM
--
compound: Fc1ccc(-c2c(-c3ccncc3)n(CCN3CCOCC3)c3cccnc23)cc1
target_of_assay: HT29 colon
TGI: > 25 µM
--
compound: C=C1C[C@]23CC[C@@H]4C(CO)(CO)CC(=O)C[C@]4(C)[C@@H]2C(O)C[C@H]1C3 (stereo partly drawn)
target_of_assay: HT29 colon
TGI: > 100 µM
--
compound: COc1ccc(CNc2cnc3cc(N)ccc3n2)cc1OC
target_of_assay: HT29 colon
TGI: > 100 µM
--
compound: NC(Cc1ccccc1)C(=O)O (stereo not drawn)
target_of_assay: HT29 colon
TGI: > 100 µM
--
compound: N#Cc1nc(Cc2cccs2)oc1N
target_of_assay: HT29 colon
TGI: > 100 µM
--
compound: Cc1ccc(NC(=O)NC23CC4CC(CC(F)(C4)C2)C3)cc1
target_of_assay: HT29 colon
TGI: > 100 µM
--
compound: CN(CCc1ccccn1)C(=S)N/N=C/c1ccccn1
target_of_assay: HT29 colon
TGI: 43.1 µM
--
compound: O=C(NNc1ccc([N+](=O)[O-])cc1)C1OC(CO)C(O)C1O (stereo not drawn)
target_of_assay: HT29 colon
TGI: > 100 µM
--
compound: COc1cc(/C=C/C=C2\CC(C)C/C(=C\C=C\c3ccc(O)c(OC)c3)C2=O)ccc1O (stereo not drawn)
target_of_assay: HT29 colon
TGI: 31 µM
--
compound: O=c1c2c(=NCCCN3CCCC3)cc3c(=O)n(CCCN4CCCC4)c(=O)c4c(NCCCN5CCCC5)cc(c(O)n1CCCN1CCCC1)c2c4-3
target_of_assay: HT29 colon
TGI: 6.49 µM
--
compound: Cc1ccc(N=Nc2cc(=O)[nH]c(=O)[nH]2)cc1C
target_of_assay: HT29 colon
TGI: 4.51 µM
--
compound: C/C(=N\n1c(N)c(C#N)c(-c2ccc(Cl)cc2)c(C#N)c1=O)c1cccnc1
target_of_assay: HT29 colon
TGI: > 100 µM
--
compound: C1CN(C23OC4(N5CCOCC5)C5C6CC(C7C6C4C72)C53)CCO1 (stereo not drawn)
target_of_assay: HT29 colon
TGI: > 100 µM
--
compound: C=C1C(=O)O[C@H]2[C@@H](O)[C@H](C)CCC/C(C)=C/CC[C@@]3(C)O[C@@H]3C[C@@H]12
target_of_assay: HT29 colon
TGI: 28.7 µM
--
compound: Cc1nc(Nc2ccc([N+](=O)[O-])cc2)sc1C(=O)/C=C/c1ccc(N(C)C)cc1
target_of_assay: HT29 colon
TGI: > 100 µM
--
compound: O=C(n1c(=O)n(-c2ccc([N+](=O)[O-])cc2)c(=O)n1C(=O)C(Cl)(Cl)Cl)C(Cl)(Cl)Cl
target_of_assay: HT29 colon
TGI: > 100 µM
--
compound: CC1=C(C(=O)OC(C)C)C(c2cccc([N+](=O)[O-])c2)C(C(=O)OC(CO[N+](=O)[O-])CO[N+](=O)[O-])=C(C)N1 (stereo not drawn)
target_of_assay: HT29 colon
TGI: 21 µM
--
compound: Nc1ncc(Cc2nn3c(COc4ccc(Cl)cc4)nnc3s2)s1
target_of_assay: HT29 colon
TGI: > 100 µM
--
compound: OCC1CC2CC1C1(C2)OCCO1 (stereo not drawn)
target_of_assay: HT29 colon
TGI: > 100 µM
--
compound: C[C@@H](CC(O)C(O)C(C)(C)O)C1CCC23CC12CCC1[C@@]2(C)CCC(=O)C(C)(C)C2CC(OC2OC(CO)C(O)C(O)C2O)[C@]13C (stereo partly drawn)
target_of_assay: HT29 colon
TGI: > 10 µM
--
compound: COc1ccc(C2CC(C)=Nc3c([nH]c(=S)[nH]c3=O)N2)cc1 (stereo not drawn)
target_of_assay: HT29 colon
TGI: 47.3 µM
--
compound: C=CC(=O)N1C/C(=C\c2ccc(F)cc2)C(=O)/C(=C/c2ccc(F)cc2)C1
target_of_assay: HT29 colon
TGI: 0.285 µM
--
compound: Cc1ccc2c(=O)c3c(O)c4c(cc3n(C)c2c1)OC(C)(C)C=C4
target_of_assay: HT29 colon
TGI: > 10 µM
--
compound: CC(=O)N/N=C1\NN(C(C)=O)C2(S1)C(=O)Nc1ccccc12 (stereo not drawn)
target_of_assay: HT29 colon
TGI: > 100 µM
--
compound: CCNC1=CC(=O)c2ncccc2C1=O
target_of_assay: HT29 colon
TGI: 6.59 µM
--
compound: CC(C)S(=O)(=O)n1c(N)nc2ccc(/C(=N/O)c3ccccc3)cc21
target_of_assay: HT29 colon
TGI: 36.8 µM
--
compound: COC(=O)C[C@H]1[C@]2(C)C3=C(C)[C@H](c4ccoc4)CC3O[C@@H]2[C@@H]2OC(=O)[C@]3(C)CCC(=O)[C@@]1(C)[C@@H]23 (stereo partly drawn)
target_of_assay: HT29 colon
TGI: > 100 µM
--
compound: O=C(Nc1ccc(-c2nc3ccc(NC(=O)c4ccc(Cl)cc4)cc3[nH]2)cc1)c1ccc(Cl)cc1
target_of_assay: HT29 colon
TGI: 6.89 µM
--
compound: NC(=O)Cn1c(=O)[nH]c(=O)c2[nH]cnc21
target_of_assay: HT29 colon
TGI: > 100 µM
--
compound: COC(=N)/C(=C1\OC(N)=C(c2ccc(Cl)cc2)C1=O)c1ccc(Cl)cc1
target_of_assay: HT29 colon
TGI: > 100 µM
--
compound: CC(CN(C)C)C(O)(c1ccccc1)c1ccccc1 (stereo not drawn)
target_of_assay: HT29 colon
TGI: > 100 µM
--
compound: CCc1ccc(/C=C2/SC(=S)NC2=O)cc1
target_of_assay: HT29 colon
TGI: > 80 µM
--
compound: Cc1nc(-c2ccc(Cl)cc2)cn2c1nc1ccccc12
target_of_assay: HT29 colon
TGI: > 100 µM
--
compound: C=C(Cl)C(=C)CCC(Cl)C(C)(C)Cl (stereo not drawn)
target_of_assay: HT29 colon
TGI: > 100 µM
